B1: library; numbered along this chain (parent)
chain: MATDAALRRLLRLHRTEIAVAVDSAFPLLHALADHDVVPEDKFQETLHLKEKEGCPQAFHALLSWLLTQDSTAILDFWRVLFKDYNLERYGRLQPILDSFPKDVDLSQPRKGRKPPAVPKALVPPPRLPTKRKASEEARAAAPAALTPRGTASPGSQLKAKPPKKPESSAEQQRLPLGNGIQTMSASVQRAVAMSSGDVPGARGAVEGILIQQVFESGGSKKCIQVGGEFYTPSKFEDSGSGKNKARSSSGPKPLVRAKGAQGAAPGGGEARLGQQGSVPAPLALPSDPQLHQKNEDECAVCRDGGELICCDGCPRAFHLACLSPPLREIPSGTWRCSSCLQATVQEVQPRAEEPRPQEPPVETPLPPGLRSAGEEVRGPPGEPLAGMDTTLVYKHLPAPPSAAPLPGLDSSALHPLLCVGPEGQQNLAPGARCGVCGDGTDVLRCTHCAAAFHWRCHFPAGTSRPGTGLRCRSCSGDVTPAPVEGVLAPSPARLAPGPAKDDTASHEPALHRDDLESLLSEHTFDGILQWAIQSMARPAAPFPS

Variants of: B1
Assay: AIRE transcriptional activation functional score (insulin promoter-GFP; nonsense median 0, synonymous median 1) (normalised score); higher = higher AIRE activity (more reporter activation)
Conditions: with insulin promoter-GFP reporter in HEK293
Please enter yes where AIRE transcriptional activation functional score is greater than or equal to 1, and no where it is lower.

variant-notation	classification
R378N	yes
A19E	no
Q426M	yes

Below: the item to evaluate.
Check if AIRE transcriptional activation functional score >= 1 (inclusive). Item: V487I
yes
